# Measured on: VR1 (human) (Homo sapiens, UniProt Q8NER1)
# Construct: expressed in transfected cells; host or cells: CHO K1 cells (ECACC)
# Sequence (Q8NER1 whole entry): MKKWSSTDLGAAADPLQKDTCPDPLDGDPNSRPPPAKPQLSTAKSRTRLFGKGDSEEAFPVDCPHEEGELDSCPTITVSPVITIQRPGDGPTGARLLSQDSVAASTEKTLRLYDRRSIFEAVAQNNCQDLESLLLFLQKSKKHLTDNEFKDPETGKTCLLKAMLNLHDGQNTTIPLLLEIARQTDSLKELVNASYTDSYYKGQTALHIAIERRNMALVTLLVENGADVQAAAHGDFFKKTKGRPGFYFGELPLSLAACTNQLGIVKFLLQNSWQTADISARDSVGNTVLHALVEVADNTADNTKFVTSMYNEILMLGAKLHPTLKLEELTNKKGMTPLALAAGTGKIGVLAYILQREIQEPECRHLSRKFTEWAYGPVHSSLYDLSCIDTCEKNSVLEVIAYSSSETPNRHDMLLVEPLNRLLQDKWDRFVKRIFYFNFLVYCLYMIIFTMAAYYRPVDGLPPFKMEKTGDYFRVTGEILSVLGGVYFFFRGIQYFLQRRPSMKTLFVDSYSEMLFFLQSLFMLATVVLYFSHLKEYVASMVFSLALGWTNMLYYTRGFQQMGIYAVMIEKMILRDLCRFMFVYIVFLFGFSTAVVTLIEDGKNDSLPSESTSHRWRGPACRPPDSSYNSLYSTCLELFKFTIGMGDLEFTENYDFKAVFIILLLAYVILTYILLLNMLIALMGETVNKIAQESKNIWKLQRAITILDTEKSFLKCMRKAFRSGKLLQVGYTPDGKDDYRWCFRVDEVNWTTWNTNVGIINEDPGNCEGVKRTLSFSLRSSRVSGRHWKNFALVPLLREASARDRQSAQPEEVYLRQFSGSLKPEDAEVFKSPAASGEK
# Procedure details: Functional FLIPR Ca2+ inflow assay on VR1 (human), CHO K1 cells stably transfected with the VR1 gene
# Format: cell-based
# Run conditions: test compound 10 μM, then 100 nM capsaicin after 5 min; relative to maximum inhibition with 10 μM capsaicin
# Source text: II. Functional Testing Carried Out on the Vanilloid Receptor (VR1) The agonistic or antagonistic effect of the substances to be tested can also be determined on the vanilloid receptor (VR1) using the following assay. According to this assay, the Ca^2+ inflow is quantified through the channel using a Ca^2+-sensitive dye (type Fluo-4, Molecular Probes Europe BV, Leiden, Netherlands) in a fluorescent imaging plate reader (FLIPR, Molecular Devices, Sunnyvale, USA). […]
Observation type: VR1 (human) (% inhibition compared to 10 μM CP) (%)
Answers are plain numbers, in %.

Please give VR1 (human) (% inhibition compared to 10 μM CP) for each item listed below.
1. CC(C)(C)C1CCC2(CC1)CC(C(=O)NCc1ccc(NS(C)(=O)=O)cc1)=NO2 (centres unmarked) [Example 2]
2. CC(C)(C)[C@H]1CC[C@@]2(CC1)CC(C(=O)NCc1ccncc1)=NO2
3. CC(C)(C)[C@H]1CC[C@]2(CC1)CC(C(=O)N1CCN(c3ccc(O)cc3)CC1)=NO2
4. CC(C)(C)c1ccc(NC(=O)[C@H]2CC[C@@]3(CC2)CC(c2ccccc2)=NO3)cc1

Result:
[58.09, 83.01, 17.54, 25]

Give measured VR1 (human) (% inhibition compared to 10 μM CP) for every item shown.
1. CC(C)(C)C1CCC2(CC1)CC(C(=O)N1CCCN(c3ncccc3Cl)CC1)=NO2 (centres unmarked)
2. CC(C)(C)[C@H]1CC[C@@]2(CC1)CC(C(=O)N1CCCN(c3ncccc3Cl)CC1)=NO2

Result:
1. 6.75
2. 0.14

Count: 2. Required value per item: VR1 (human) (% inhibition compared to 10 μM CP).
1. CC(C)(C)[C@H]1CC[C@]2(CC1)CC(C(=O)N1CCN(c3ncccc3C(F)(F)F)CC1)=NO2
2. CC(C)(C)C1CCC2(CC1)CC(C(=O)NCc1ccc(NS(C)(=O)=O)cc1)=NO2 (centres unmarked) [Example 3]

Result:
[20.73, 80.10]

====

Kindly supply the reported VR1 (human) (% inhibition compared to 10 μM CP) values for the records listed here.
# Measured on: VR1 (human) (Homo sapiens, UniProt Q8NER1)
# Construct: expressed in transfected cells; host or cells: CHO K1 cells (ECACC)
# Procedure details: Functional FLIPR Ca2+ inflow assay on VR1 (human), CHO K1 cells stably transfected with the VR1 gene
# Format: cell-based
# Run conditions: test compound 10 μM, then 100 nM capsaicin after 5 min; relative to maximum inhibition with 10 μM capsaicin
One number for each entry, in %.

Below, 4 compounds whose answers are already recorded.
>>> print(df.to_string())
                                   compound  value_observed
0  CC(C)(C)C1CCC2(CC1)CC(C(=O)NCc1ccncc1)=NO2 (stereo not drawn) [Example 23]           54.21
1  COc1cc2c(cc1OC)CN(C(=O)C1=NO[C@]3(CC[C@H](C(C)(C)C)CC3)C1)CC2 [Example 18]           22.05
2  CC(C)(C)[C@H]1CC[C@@]2(CC1)CC(C(=O)N1CCN(c3ncccc3C(F)(F)F)CC1)=NO2 [Example 9]           61.74
3  CC(C)(C)[C@H]1CC[C@@]2(CC1)CC(C(=O)N1CCN(c3ccc(O)cc3)CC1)=NO2 [Example 11]           28.56

Look at each compound and report its VR1 (human) (% inhibition compared to 10 μM CP).
1. CC(C)(C)[C@H]1CC[C@@]2(CC1)CC(C(=O)N1CCN(c3nsnc3Cl)CC1)=NO2 [Example 17]
2. COc1cc2c(cc1OC)CN(C(=O)C1=NO[C@]3(CC[C@@H](C(C)(C)C)CC3)C1)CC2 [Example 19]

Result:
[14.95, 22.55]
